- assaySystem: Protein kinase C alpha type (Rattus norvegicus, UniProt P05696)
pIC50: −log10 of the molar value.

compound: CCCCCCCCCCCCCCCCCCCCCCCC(=O)OC(CN(C)C)C[N+](C)(C)C (stereo unspecified) [Amphiphile, XVII]
pIC50: 4.40
//
compound: CC(C)CCCC(N)C1CCN2C3OC=C4CC(OC(=O)CCC(=O)NCC[N+](C)(C)C)CCC4(C)C3CCC12C (stereo unspecified) [Amphiphile, IX]
pIC50: 4.23
//
compound: CC(C)CCCC(N)C1CCN2C3OC=C4CC(OC(=O)CCC(=O)OCCN(C)CC[N+](C)(C)C)CCC4(C)C3CCC12C (stereo unspecified) [Amphiphile, XIII]
pIC50: 4.70
//
compound: CC(C)CCCC(C)C1CCC2C3CC=C4CC(C(=O)NCC[N+](C)(C)C)CCC4(C)C3CCC12C (stereo unspecified) [Amphiphile, IV]
pIC50: 4.92
//
compound: CC(C)CCCC(N)C1CCN2C3OC=C4CC(OC(=O)CCC(=O)OC(CN(C)C)CN(C)C)CCC4(C)C3CCC12C (stereo unspecified) [Amphiphile, X]
pIC50: 3.39
//
compound: CCCCCCCCCCCCCCCCCCCCCC(=O)OC(CN(C)C)C[N+](C)(C)C (stereo unspecified) [Amphiphile, XVI]
pIC50: 4.59
